Entry source: paper PMC6880826

Assay: Mouse pharmacokinetics, plasma and brain, oral dose
Type: in vivo, CD1 mouse
Conditions: CD1, po, brain, p.o. 10 mg/kg
measured_parameter: Cmax (ng/g)
Kindly answer with a numeric value in ng/g, unit omitted.

Return reported Cmax; argument: O=C(O)CSc1ncnc2c(C3CC3)c(Cl)sc12
500

---

Test: Metabolic stability in mouse liver microsomes (MLM)
Assay type: in vitro ADME
Settings: Table S4; mouse liver microsomes
measured_parameter: MLM Cli (µL/min/mg)
Kindly answer with a numeric value in µL/min/mg, unit omitted.

INSERT INTO assay_data (molecule, measured_parameter, unit_string, val) VALUES
  ('O=C(CSc1ncnc2c(C3CC3)c(Cl)sc12)N1CCn2cncc2C1 [Compound 17n]', 'MLM Cli', 'µL/min/mg', 49),
  ('O=C1CN(C(=O)CSc2ncnc3c(C4CC4)c(Cl)sc23)CN1 [Compound 17g]', 'MLM Cli', 'µL/min/mg', 19),
  ('O=C1CN(C(=O)CSc2ncnc3c(C4CC4)c(Cl)sc23)CCN1 [Compound 17i]', 'MLM Cli', 'µL/min/mg', 24),
  ('CN1CN(C(=O)CSc2ncnc3c(C4CC4)c(Cl)sc23)CC1=O [Compound 17h]', 'MLM Cli', 'µL/min/mg', 45),
  ('O=C(CSc1ncnc2c(C3CC3)c(Cl)sc12)N1CCn2ccnc2C1 [Compound 17m]', 'MLM Cli', 'µL/min/mg', 290),
  ('O=C(CSc1ncnc2c(C3CC3)c(Cl)sc12)N1CC2(COC2)C1 [Compound 17f]', 'MLM Cli', 'µL/min/mg', 100);

Return reported MLM Cli; argument: O=C(CSc1ncnc2c(C3CC3)c(Cl)sc12)N1CCn2nncc2C1 [Compound 17r]
110

Return reported MLM Cli; argument: O=C(CSc1ncnc2c(C3CC3)c(Cl)sc12)N1CCn2c(nnc2C(F)(F)F)C1 [Compound 17q]
190

---

System: MDCK-MDR1 monolayer
Experiment: MDCK-MDR1 monolayer permeability / P-gp efflux
Format: in vitro ADME
Settings: csv file; BA direction
Please note: satisfied applies when MDCK-mdr1 BA is 30 x10–6 cm/s or greater, and not satisfied applies otherwise.

Consider the following illustrative entries.
INSERT INTO measurements (compound, label) VALUES
  ('O=C(CSc1ncnc2c(C3CC3)c(Cl)sc12)N1CCn2ccnc2C1 [Compound 17m]', 'not satisfied'),
  ('CN1CN(C(=O)CSc2ncnc3c(C4CC4)c(Cl)sc23)CC1=O [Compound 17h]', 'not satisfied'),
  ('O=C(CSc1ncnc2c(C3CC3)c(Cl)sc12)N1CCn2nncc2C1 [Compound 17r]', 'not satisfied'),
  ('O=C(CSc1ncnc2c(C3CC3)c(Cl)sc12)N1CCOCC1 [Compound 17c]', 'satisfied'),
  ('O=C(CSc1ncnc2c(C3CC3)c(Cl)sc12)N1CCn2cnnc2C1 [Compound 17p]', 'satisfied'),
  ('O=C1CN(C(=O)CSc2ncnc3c(C4CC4)c(Cl)sc23)CN1 [Compound 17g]', 'not satisfied'),
  ('O=C(CSc1ncnc2c(C3CC3)c(Cl)sc12)N1CCn2c(nnc2C(F)(F)F)C1 [Compound 17q]', 'satisfied'),
  ('O=C1CN(C(=O)CSc2ncnc3c(C4CC4)c(Cl)sc23)CCN1 [Compound 17i]', 'satisfied');

// next entry
Is it the case that O=C(CSc1ncnc2c(C3CC3)c(Cl)sc12)N1CCn2cncc2C1 [Compound 17n] has MDCK-mdr1 BA reaching or exceeding 30 x10–6 cm/s?
satisfied
